- System: Full length DGKζ (in-house protein M1-V929) (Homo sapiens, UniProt Q13574)
- Construct: His (N); TEV site (N)
- Sequence (Q13574 1-929 isoform Q13574-4): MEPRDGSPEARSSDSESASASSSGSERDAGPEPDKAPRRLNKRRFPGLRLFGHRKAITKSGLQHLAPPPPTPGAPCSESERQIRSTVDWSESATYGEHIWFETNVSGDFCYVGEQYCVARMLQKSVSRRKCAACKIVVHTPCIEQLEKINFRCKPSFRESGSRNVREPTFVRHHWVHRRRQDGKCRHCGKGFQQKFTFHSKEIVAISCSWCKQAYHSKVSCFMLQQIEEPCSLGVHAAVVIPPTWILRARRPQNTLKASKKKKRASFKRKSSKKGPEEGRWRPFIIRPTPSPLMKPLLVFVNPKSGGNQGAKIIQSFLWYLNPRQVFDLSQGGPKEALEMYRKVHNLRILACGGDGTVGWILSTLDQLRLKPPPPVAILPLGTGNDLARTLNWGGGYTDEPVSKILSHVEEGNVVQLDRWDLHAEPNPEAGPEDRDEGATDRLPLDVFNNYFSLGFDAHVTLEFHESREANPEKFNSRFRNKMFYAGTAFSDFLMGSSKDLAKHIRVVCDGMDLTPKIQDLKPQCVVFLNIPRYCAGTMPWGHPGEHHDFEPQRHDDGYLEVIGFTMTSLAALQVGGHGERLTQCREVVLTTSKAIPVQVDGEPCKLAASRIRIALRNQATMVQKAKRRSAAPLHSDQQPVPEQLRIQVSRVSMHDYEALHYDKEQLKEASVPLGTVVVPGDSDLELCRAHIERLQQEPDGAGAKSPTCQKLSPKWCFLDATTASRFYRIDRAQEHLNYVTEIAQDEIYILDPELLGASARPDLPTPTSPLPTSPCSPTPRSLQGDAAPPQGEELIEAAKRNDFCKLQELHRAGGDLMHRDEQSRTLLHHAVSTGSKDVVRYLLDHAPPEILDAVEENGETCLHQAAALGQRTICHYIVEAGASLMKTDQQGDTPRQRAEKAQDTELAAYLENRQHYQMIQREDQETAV
- Measurement Notes: Biochemical DGK IC50 assay (ADP-Glo, lipid micelle substrate), DGKζ
- Recorded Conditions: 1 hour preincubation, 1 hour reaction, room temperature
Parameter: IC50 (nM)

# count of solved cases: 4
CCn1c(CC#N)nc2c(N3C[C@@H](C)N(C(C)c4ccc5c(c4)OC(C)(C)O5)C[C@@H]3C)nc(=O)n(C)c21 (single isomer, unassigned) [Compound A85a] | 1250
CCn1c(CC#N)nc2c(N3C[C@@H](C)N(C(C)c4ccnc(N5CCC5)c4)C[C@@H]3C)nc(=O)n(C)c21 (some centres unmarked) [Compound A121] | 212
CCn1c(CC#N)nc2c(N3C[C@@H](C)N(C(C)c4ccc5c(n4)OC(C)(C)CO5)C[C@@H]3C)nc(=O)n(C)c21 (single isomer, unassigned) [Compound A74b] | 4870
CC[C@@H]1CN(c2nc(=O)n(C)c3c2nc(CC#N)n3CC)[C@@H](C)CN1C(C)c1ccc2c(n1)OC(C)(C)CO2 (mixture of isomers) [Compound A158] | 33

(1) COCc1cc(F)ccc1C(C)N1C[C@H](C)N(c2nc(=O)n(C)c3c2nc(CC#N)n3C)C[C@H]1C (single isomer, unassigned) [Compound A27a]
(2) CCn1c(CC#N)nc2c(N3C[C@@H](C)N(C(C)c4cc5c(cn4)OCC(C)(C)O5)C[C@@H]3C)nc(=O)n(C)c21 (some centres unmarked) [Compound A75]
stdin: Which numeric IC50 is bigger, that of 1 or that of 2 ? Answer with the label corresponding to your selection.
stdout: 1
(1: 569 nM, 2: 253 nM)

(A) CCn1c(CC#N)nc2c(N3C[C@@H](C)N(C(C)c4cccc(CN5CCOCC5)c4)C[C@@H]3C)nc(=O)n(C)c21 (some centres unmarked) [Compound A142]
(B) CC[C@@H]1CN(c2nc(=O)n(C)c3c2nc(CC#N)n3C)[C@@H](C)CN1C(C)c1ccc2ncc(C)nc2c1 (single isomer, unassigned) [Compound A50a]
stdin: Returns the identifier with the smallest measured IC50 among A and B . Answer = label.
stdout: B
(B: 4 nM, A: 6300 nM)

---

The reader will find reported pIC50 values listed item by item below.
- System: Full length DGKα (D21-10BG, SignalChem) (Homo sapiens, UniProt P23743)
- Sequence (P23743 whole entry): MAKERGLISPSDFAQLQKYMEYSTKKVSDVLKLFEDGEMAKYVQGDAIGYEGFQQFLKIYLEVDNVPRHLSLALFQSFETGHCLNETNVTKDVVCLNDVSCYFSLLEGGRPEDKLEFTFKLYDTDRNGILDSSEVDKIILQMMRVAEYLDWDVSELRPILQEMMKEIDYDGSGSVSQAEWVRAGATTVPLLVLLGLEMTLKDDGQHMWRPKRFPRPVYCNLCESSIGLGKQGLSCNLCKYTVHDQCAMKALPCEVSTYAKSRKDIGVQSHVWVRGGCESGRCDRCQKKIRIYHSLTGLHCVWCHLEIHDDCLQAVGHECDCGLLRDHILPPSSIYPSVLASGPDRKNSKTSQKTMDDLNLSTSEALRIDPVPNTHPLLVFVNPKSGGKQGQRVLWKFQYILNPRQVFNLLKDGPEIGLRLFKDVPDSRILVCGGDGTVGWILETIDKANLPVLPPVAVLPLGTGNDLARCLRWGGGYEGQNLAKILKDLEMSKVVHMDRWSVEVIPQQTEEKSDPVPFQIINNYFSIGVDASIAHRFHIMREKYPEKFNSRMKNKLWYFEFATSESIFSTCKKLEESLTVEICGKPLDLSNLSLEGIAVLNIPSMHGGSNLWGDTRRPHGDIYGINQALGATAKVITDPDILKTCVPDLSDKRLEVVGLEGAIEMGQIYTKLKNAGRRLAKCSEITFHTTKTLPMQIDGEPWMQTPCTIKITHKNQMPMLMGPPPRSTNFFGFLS
pIC50: −log10 of the molar value.

Known results for molecules:
CCn1c(CC#N)nc2c(N3C[C@@H](C)N(C(C)c4csc(C(F)(F)F)n4)C[C@@H]3C)nc(=O)n(C)c21 (stereo partly drawn) [Compound A104] | < 3.82
CCn1c(=O)nc(N2C[C@@H](C)N(C(C)c3ccc4ncc(C)nc4c3)C[C@@H]2C)c2nc(CC#N)n(C)c21 (single isomer, unassigned) [Compound A53a] | 4.22

--- query ---
stdin: Need pIC50 of CC(c1cccnc1C(F)(F)F)N1C[C@H](C)N(c2cc(=O)n(C)c3c2nc(CC#N)n3C)C[C@H]1C (single isomer, unassigned) [Compound A7a] , thanks.
stdout: < 5.00

---

- System: Full length DGKζ (in-house protein M1-V929) (Homo sapiens, UniProt Q13574)
- Construct: His (N); TEV site (N)
- Measurement Notes: Biochemical DGK IC50 assay (ADP-Glo, lipid micelle substrate), DGKζ
- Recorded Conditions: 1 hour preincubation, 1 hour reaction, room temperature
- Procedure: Enzymatic reactions of DGKζ, DGKα and DGKδ were performed using ADP-Glo assay with lipid micelle substrate. […] Full length DGKα (D21-10BG, SignalChem) and full length DGKδ (D23-10G, SignalChem) were purchased. Lipid micelle was prepared by dissolving DAG (Sigma, 317505-10 MG) and PS (Sigma, P7769-100 MG) with chloroform which was furtherly removed by rotary evaporation. […]
pIC50: −log10 of the molar value.
Parameter: pIC50

CCn1c(CC#N)nc2c(N3C[C@@H](C)N(C(C)c4ccc5c(c4F)OC(C)(C)CO5)C[C@@H]3C)nc(=O)n(C)c21 (stereo partly drawn) | 7.32

(P) CC[C@@H]1CN(c2nc(=O)n(C)c3c2nc(CC#N)n3C)[C@@H](C)CN1C(C)c1ccc2c(n1)OC(C)(C)CO2 (mixture of isomers) [Compound A159]
(Q) CCn1c(CC#N)nc2c(N3C[C@@H](C)N(C(C)c4ccc5c(c4)C(=O)N(C)C5)C[C@@H]3C)nc(=O)n(C)c21 (stereo partly drawn)
(R) CCn1c(CC#N)nc2c(N3C[C@@H](C)N(C(C)c4ccc(C(F)(F)F)cc4)C[C@@H]3C)nc(=O)n(C)c21 (stereo partly drawn)
(S) CC(c1ccc(C(F)(F)F)cn1)N1C[C@H](C)N(c2nc(=O)n(C)c3c2nc(CC#N)n3C)C[C@H]1C (single isomer, unassigned) [Compound A148a]
(T) COC[C@H]1CN(C(C)c2ccc(F)cc2C(F)(F)F)[C@H](C)CN1c1nc(=O)n(C)c2c1nc(CC#N)n2C (stereo partly drawn) [Compound A10]
stdin: Descending sort on pIC50 required. Answer by naming the labels in the order asked.
stdout: P, T, R, S, Q
(P: 7.96, T: 7.60, R: 6.40, S: 5.96, Q: 5.39)
